So I've got a bunch of molecules here, and I need their IC50 values.
- target or system: Human Testicular 17α-Hydroxylase (Homo sapiens, UniProt P05093)
- Construct: incubating human testicular microsomes; from tissue; host or cells: human testis, microsomes
- assay protocol: Inhibition of human testicular 17α-hydroxylase (pregnenolone substrate, testicular microsomes)
- Format: biochemical
- condition parameters: Table 1; NI = no inhibition; read-out: IC50 17α-OHase

What value of IC50 has been recorded for this entry: C[C@H](c1c[nH]cn1)[C@H]1CC[C@H]2[C@@H]3CCC4=CC(=O)CC[C@]4(C)[C@H]3CC[C@]12C > 30000 nM

Same question, C[C@]12CC[C@H]3[C@@H](CCC4=CC(=O)CC[C@@]43C)[C@@H]1CC[C@@H]2c1c[nH]cn1 this time 59 nM

Same question, CC(=O)[C@@]12O[C@@H]1C[C@H]1[C@@H]3CC=C4C[C@@H](O)CC[C@]4(C)[C@H]3CC[C@@]12C this time 440 nM

Same question, C[C@]12CC[C@H]3[C@@H](CC=C4C[C@@H](O)CC[C@@]43C)[C@@H]1CC[C@@H]2[C@@]1(C)CO1 this time 110 nM

Same question, C[C@H](C=O)[C@H]1CC[C@H]2[C@@H]3CC=C4C[C@@H](O)CC[C@]4(C)[C@H]3CC[C@]12C this time 80 nM

Same question, C[C@H](N)[C@H]1CC[C@H]2[C@@H]3CC=C4C[C@@H](O)CC[C@]4(C)[C@H]3CC[C@]12C this time 9800 nM

###

- target or system: Human Testicular C17,20-lyase (Homo sapiens)
- Construct: incubating human testicular microsomes; from tissue; host or cells: human testis, microsomes
- Sequence (P05093 1-508): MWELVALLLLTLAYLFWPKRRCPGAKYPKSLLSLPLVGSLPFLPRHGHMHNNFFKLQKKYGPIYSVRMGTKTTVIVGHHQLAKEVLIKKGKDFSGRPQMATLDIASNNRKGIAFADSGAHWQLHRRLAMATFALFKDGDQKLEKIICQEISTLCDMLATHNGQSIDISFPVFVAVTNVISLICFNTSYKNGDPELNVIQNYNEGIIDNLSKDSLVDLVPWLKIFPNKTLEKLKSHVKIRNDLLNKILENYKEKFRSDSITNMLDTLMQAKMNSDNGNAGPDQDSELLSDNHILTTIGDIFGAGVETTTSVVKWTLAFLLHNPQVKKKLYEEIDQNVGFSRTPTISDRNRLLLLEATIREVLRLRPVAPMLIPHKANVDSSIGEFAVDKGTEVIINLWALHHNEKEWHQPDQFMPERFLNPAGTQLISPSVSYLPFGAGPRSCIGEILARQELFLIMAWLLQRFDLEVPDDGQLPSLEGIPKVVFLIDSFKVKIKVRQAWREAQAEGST
- assay protocol: Inhibition of human testicular C17,20-lyase (pregnenolone substrate, testicular microsomes)
- Type: biochemical
- condition parameters: Table 1; NI = no inhibition; CI = complete inhibition; read-out: IC50 C17,20 lyase
So I've got a bunch of compounds here, and I need their pIC50 values.
When answering, recall that pIC50 equals minus log10 of the concentration in mol/L, and write that number alone.

Give pIC50 (Human Testicular C17,20-lyase (Homo sapiens)) of the following compound: CN(C=O)[C@H]1CC[C@H]2[C@@H]3CCC4=CC(=O)CC[C@]4(C)[C@H]3CC[C@]12C [Compound I-40] 6.17

Same question, CC(=O)[C@@]1(Br)CC[C@H]2[C@@H]3CC=C4C[C@@H](O)CC[C@]4(C)[C@H]3CC[C@@]21C [Compound I-11] this time 6.01

Same question, C[C@@H](N)[C@H]1CC[C@H]2[C@@H]3CC=C4C[C@@H](O)CC[C@]4(C)[C@H]3CC[C@]12C [Compound I-9] this time 4.36

Same question, C[C@]12CC[C@H]3[C@@H](CC=C4C[C@@H](O)CC[C@@]43C)[C@@H]1CC[C@@H]2[C@]1(C)CO1 [Compound I-7] this time 6.14

Same question, CC(=O)[C@@]12O[C@@H]1C[C@H]1[C@@H]3CC=C4C[C@@H](O)CC[C@]4(C)[C@H]3CC[C@@]12C [Compound I-17] this time 6.17

Same question, C[C@]12CC[C@H]3[C@@H](CC=C4C[C@@H](O)CC[C@@]43C)[C@@H]1CC[C@@H]2[C@@]1(C)CO1 [Compound I-8] this time 6.85

Same question, C[C@]12CC[C@H]3[C@@H](CC=C4C[C@@H](O)CC[C@@]43C)[C@@H]1CC[C@@H]2c1c[nH]cn1 [Compound I-47, 17β-(4'-imidazolyl)-androst-5-en-3β-ol] this time 7.64

Same question, C[C@]12CCC(=O)C=C1CC[C@@H]1[C@@H]2CC[C@@]2(C)[C@H]1CC[C@]2(O)c1c[nH]cn1 [Compound I-44] this time 6.00

Same question, CC(=O)[C@@]12O[C@@H]1C[C@H]1[C@@H]3CCC4=CC(=O)CC[C@]4(C)[C@H]3CC[C@@]12C [Compound I-18] this time 6.10

Same question, CC(=NO)[C@H]1CC[C@H]2[C@@H]3CCC4=CC(=NO)CC[C@]4(C)[C@H]3CC[C@]12C [Compound I-42] this time 6.66

Same question, C[C@H](N)[C@H]1CC[C@H]2[C@@H]3CC=C4C[C@@H](O)CC[C@]4(C)[C@H]3CC[C@]12C [Compound I-10] this time 5.10

Same question, C[C@]12CC[C@H](O)CC1=CC[C@@H]1[C@@H]2CC[C@]2(C)C(c3c[nH]cn3)=CC[C@@H]12 [Compound I-49] this time 8.05

Same question, C[C@H](C=O)[C@H]1CC[C@H]2[C@@H]3CC=C4C[C@@H](O)CC[C@]4(C)[C@H]3CC[C@]12C [Compound I-31] this time 7.10

Same question, C[C@]12CC[C@H](O)CC1=CC[C@@H]1[C@@H]2CC[C@@]2(C)[C@H]1C[C@H]1O[C@]12c1c[nH]cn1 [Compound I-51] this time 7.00

Same question, CC(=NO)[C@H]1CC[C@H]2[C@@H]3CCC4=CC(=NO)CC[C@]4(C)[C@H]3CC[C@]12C [Compound I-43] this time 7.15

Same question, CN(C)N=C1CC[C@H]2[C@@H]3CC=C4C[C@@H](O)CC[C@]4(C)[C@H]3CC[C@]12C [Compound I-56] this time 5.62

Same question, CCOC(=O)C1=CC[C@H]2[C@@H]3CC=C4C[C@@H](O)CC[C@]4(C)[C@H]3CC[C@]12C [Compound I-53] this time 5.61

Same question, CC(=O)O[C@H]1CC[C@@]2(C)C(=CC[C@@H]3[C@@H]2CC[C@]2(C)C(c4c[nH]cn4)=CC[C@@H]32)C1 [Compound L-12] this time 7.60

Same question, C[C@]12CC[C@H]3[C@@H](CCC4=CC(=O)CC[C@@]43C)[C@@H]1CC[C@@H]2c1c[nH]cn1 [Compound I-41, 17β-(4'-imidazolyl)-androst-4-en-3-one] this time 8.30

Same question, CN(C=O)[C@H]1CC[C@H]2[C@@H]3CC=C4C[C@@H](O)CC[C@]4(C)[C@H]3CC[C@]12C [Compound I-39] this time 6.55

###

- target or system: Human Testicular C17,20-lyase (Homo sapiens, UniProt P05093)
- Construct: incubating human testicular microsomes; from tissue; host or cells: human testis, microsomes
- assay protocol: Inhibition of human testicular C17,20-lyase (pregnenolone substrate, testicular microsomes)
- Assay type: biochemical
- condition parameters: 400 nM; second figure of pair; read-out: % Inhibition C17,20-lyase, [I] = 400 nM
So I've got a bunch of compounds here, and I need their inhibition at 0.4 µM values.
Answer with a number only, understood to be in %.

What value of inhibition at 0.4 µM has been recorded for this entry: C[C@]12CC[C@H]3[C@@H](CC=C4C[C@@H](O)CC[C@@]43C)[C@@H]1CC[C@@H]2c1ncc[nH]1 100

Same question, Cc1nc([C@H]2CC[C@H]3[C@@H]4CC=C5C[C@@H](O)CC[C@]5(C)[C@H]4CC[C@]23C)co1 this time 81.7

Same question, CC(=O)O[C@H]1CC[C@@]2(C)C(=CC[C@@H]3[C@@H]2CC[C@]2(C)C(c4c[nH]cn4)=CC[C@@H]32)C1 this time 97

Same question, C[C@]12CC[C@H]3[C@@H](CC=C4C[C@@H](O)CC[C@@]43C)[C@@H]1CC[C@@H]2c1c[nH]c(-c2ccccc2)n1 this time 33.8

Same question, C[C@]12CC[C@H]3[C@@H](CCC4=CC(=O)CC[C@@]43C)[C@@H]1CC[C@@H]2c1ncc[nH]1 this time 100

###

So I've got a bunch of molecules here, and I need their inhibition at 0.1 µM values.
- target or system: Human Testicular C17,20-lyase (Homo sapiens)
- Construct: incubating human testicular microsomes; from tissue; host or cells: human testis, microsomes
- assay protocol: Inhibition of human testicular C17,20-lyase (pregnenolone substrate, testicular microsomes)
- Type: biochemical
- condition parameters: 100 nM; second figure of pair; read-out: % Inhibition C17,20-lyase, [I] = 100 nM
Answer with a number only, understood to be in %.

What value of inhibition at 0.1 µM has been recorded for this entry: C[C@]12CC[C@H]3[C@@H](CC=C4C[C@@H](O)CC[C@@]43C)[C@@H]1CC[C@@H]2c1ncc[nH]1 73.9

Same question, C[C@]12CC[C@H]3[C@@H](CC[C@]45CC(=O)C=C[C@]34C5)[C@@H]1CCC2=O this time 28.8

Same question, C[C@]12CC[C@H]3[C@@H](CC=C4C[C@@H](O)CC[C@@]43C)[C@@H]1CC[C@@H]2c1c[nH]c(-c2ccccc2)n1 this time 9.5
